The reader will find reported fraction unbound values listed item by item below.
Test: Fraction unbound in mouse plasma at 10 mg/kg, po
Type: ADME, organism-based
Design: dose 10 mg/kg, route oral
// response body must contain only the number

Molecule | fraction unbound
Cc1nc2ccccn2c1C(=O)CN1CCN(c2ccc(F)cn2)CC1 | 0.275
CC1CCc2sc(NC(=O)CN3CCN(c4ccc(F)cc4)CC3)nc2C1 (stereo not drawn) | 0.0043

Turning now to a further record.
Request: Which value of fraction unbound has been reported for O=C(CN1CCN(c2ccc(F)cn2)CC1)Nc1nc2c(s1)CCCC2 in the records?
Result: 0.0015

----------
Test: Volume of distribution in mouse at 1 mg/kg, iv
Type: ADME, organism-based
Parameters: dose 1 mg/kg, route intravenous
Measurement setup: in vivo
Observation type: Vd
Please format your answer as a value with the unit trailing.

Smiles repr | Vd
O=C(CN1CCN(c2ccc(F)cn2)CC1)Nc1nc2c(s1)CCCC2 | 0.57 L/kg

Turning now to a further record.
Request: Which value of Vd has been reported for Cc1nc2ccccn2c1C(=O)CN1CCN(c2ccc(F)cn2)CC1 in the records?
Result: 0.2 L/kg

----------
Test: AUC in mouse at 10 mg/kg, po
Type: ADME, organism-based
Parameters: dose 10 mg/kg, route oral
Measurement setup: plasma
Observation type: AUC
Please format your answer as a value with the unit trailing.

Example entries and their recorded answers appear below.
Molecule | AUC
O=C(CN1CCN(c2ccc(F)cn2)CC1)Nc1nc2c(s1)CCCC2 | 36000 ng·h/mL
Cc1nc2ccccn2c1C(=O)CN1CCN(c2ccc(F)cn2)CC1 | 5500 ng·h/mL

Request: Which value of AUC has been reported for CC1CCc2sc(NC(=O)CN3CCN(c4ccc(F)cc4)CC3)nc2C1 (stereo not drawn) in the records?
Result: 2300 ng·h/mL

----------
Test: 1-Octanol-phosphate buffered saline distribution coefficient, log D of the compound at pH 7.4
Type: physicochemical
Recorded logD determines the label; the label ranges are interval 1 = under 3, interval 2 = from 3 up to 4, interval 3 = 4 and over

Here's what some known entries look like.
Compound | Classification
CC1CCc2sc(NC(=O)CN3CCN(c4ccc(F)cc4)CC3)nc2C1 (stereo unspecified) | interval 3
O=C(CN1CCN(c2ccc(F)cn2)CC1)Nc1nc2c(o1)CCCC2 | interval 1

Next compound, please.
Request: Lab note: sort Cc1nc2n(c1C(=O)CN1CCN(c3ccc(F)cn3)CC1)CCCC2 into the matching logD band.
Result: interval 1

----------
The reader will find reported bioavailability values listed item by item below.
Test: Oral bioavailability in mouse at 10 mg/kg
Assay type: ADME, organism-based
Measurement setup: in vivo
Number only, in %; omit the unit.

Compound | Observation type | Observed measurement
Cc1nc2ccccn2c1C(=O)CN1CCN(c2ccc(F)cn2)CC1 | bioavailability | 21
CC1CCc2sc(NC(=O)CN3CCN(c4ccc(F)cc4)CC3)nc2C1 (stereo not drawn) | bioavailability | 62

Request: Which value of bioavailability has been reported for O=C(CN1CCN(c2ccc(F)cn2)CC1)Nc1nc2c(s1)CCCC2 in the records?
Result: 100

----------
The reader will find reported clearance values listed item by item below.
Test: Clearance in mouse at 1 mg/kg, iv
Format: ADME, organism-based
Set-up: dose 1 mg/kg, route intravenous
Measurement setup: in vivo
Number only, in mL/min/kg; omit the unit.

Smiles repr | Observed measurement
Cc1nc2ccccn2c1C(=O)CN1CCN(c2ccc(F)cn2)CC1 | 6.4

Turning now to a further record.
Request: Which value of clearance has been reported for O=C(CN1CCN(c2ccc(F)cn2)CC1)Nc1nc2c(s1)CCCC2 in the records?
Result: 5

----------
Test: 1-Octanol-phosphate buffered saline distribution coefficient, log D of the compound at pH 7.4
Assay type: physicochemical
Observation type: logD
// response body must contain only the number

Request: Which value of logD has been reported for O=C(CN1CCN(c2ccc(F)cn2)CC1)Nc1nc2c(s1)CCCC2 in the records?
Result: 4.1

----------
Test: Clearance in mouse at 5 mg/kg, iv
Assay type: ADME, organism-based
Design: dose 5 mg/kg, route intravenous
Measurement setup: in vivo
Observation type: clearance (mL/min/kg)
Number only, in mL/min/kg; omit the unit.

Request: Which value of clearance has been reported for CC1CCc2sc(NC(=O)CN3CCN(c4ccc(F)cc4)CC3)nc2C1 (stereo unspecified) in the records?
Result: 46

----------
Test: Solubility in Japanese Pharmacopoeia second fluid
Assay type: physicochemical
Measurement setup: pH 6.8
The reader will find reported solubility values listed item by item below.
Number only, in µg/mL; omit the unit.

Compound | Value unit | solubility
Cc1nc2ccccn2c1C(=O)CN1CCN(c2ccc(F)cn2)CC1 | µg/mL | 350
CC1CCc2sc(NC(=O)CN3CCN(c4ccc(F)cc4)CC3)nc2C1 (stereo not drawn) | µg/mL | 0.7

Request: Which value of solubility has been reported for O=C(CN1CCN(c2ccc(F)cn2)CC1)Nc1nc2c(s1)CCCC2 in the records?
Result: 2.4

----------
Test: Metabolic stability in mouse liver microsomes assessed as compound remaining after 0.5 hr
Type: ADME, Microsome
Measurement setup: read-out: Stability
Lab note: anything with remaining at 0.5 h below 60% is marked Criterion met; values at 60% or higher are marked Criterion not met.

Here's what some known entries look like.
Compound | Classification
O=C(CN1CCN(c2ccc(F)cn2)CC1)Nc1nc2c(s1)CCCC2 | Criterion not met
Cc1nc2n(c1C(=O)CN1CCN(c3ccc(F)cn3)CC1)CCCC2 | Criterion met
O=C(CN1CCN(c2ccc(F)cn2)CC1)Nc1nc2c(o1)CCCC2 | Criterion not met
O=C(CN1CCN(c2ccc(F)cn2)CC1)c1cnn2ccccc12 | Criterion not met
O=C(CN1CCN(c2ccc(F)cn2)CC1)c1cnc2ccccn12 | Criterion not met
CN(C(=O)CN1CCN(c2ccc(F)cn2)CC1)c1nc2c(s1)CCCC2 | Criterion not met
O=C(CN1CCN(c2ccc(F)cn2)CC1)c1cnc2n1CCCC2 | Criterion not met
O=C(CN1CCN(c2ccc(F)cc2)CC1)Nc1nc2c(s1)CCCC2 | Criterion met
CC1CCc2sc(NC(=O)CN3CCN(c4ccc(F)cc4)CC3)nc2C1 (stereo not drawn) | Criterion met
Cc1nc2ccccn2c1C(=O)CN1CCN(c2ccc(F)cn2)CC1 | Criterion met

Request: Strictly below 60%: is that where remaining at 0.5 h of Cc1nc(NC(=O)CN2CCN(c3ccc(F)cc3)CC2)sc1C sits?
Result: Criterion met

Request: Strictly below 60%: is that where remaining at 0.5 h of O=C(CN1CCN(c2ccc(F)cn2)CC1)c1coc2ccccc12 sits?
Result: Criterion not met

Request: Strictly below 60%: is that where remaining at 0.5 h of O=C(CN1CCN(c2ccc(F)cc2)CC1)Nc1nc2c(o1)CCCC2 sits?
Result: Criterion met

----------
System: Long-chain fatty acid transport protein 1 (Mus musculus) | Read-out: log10(IC50)
Sequence (Q60714 whole entry): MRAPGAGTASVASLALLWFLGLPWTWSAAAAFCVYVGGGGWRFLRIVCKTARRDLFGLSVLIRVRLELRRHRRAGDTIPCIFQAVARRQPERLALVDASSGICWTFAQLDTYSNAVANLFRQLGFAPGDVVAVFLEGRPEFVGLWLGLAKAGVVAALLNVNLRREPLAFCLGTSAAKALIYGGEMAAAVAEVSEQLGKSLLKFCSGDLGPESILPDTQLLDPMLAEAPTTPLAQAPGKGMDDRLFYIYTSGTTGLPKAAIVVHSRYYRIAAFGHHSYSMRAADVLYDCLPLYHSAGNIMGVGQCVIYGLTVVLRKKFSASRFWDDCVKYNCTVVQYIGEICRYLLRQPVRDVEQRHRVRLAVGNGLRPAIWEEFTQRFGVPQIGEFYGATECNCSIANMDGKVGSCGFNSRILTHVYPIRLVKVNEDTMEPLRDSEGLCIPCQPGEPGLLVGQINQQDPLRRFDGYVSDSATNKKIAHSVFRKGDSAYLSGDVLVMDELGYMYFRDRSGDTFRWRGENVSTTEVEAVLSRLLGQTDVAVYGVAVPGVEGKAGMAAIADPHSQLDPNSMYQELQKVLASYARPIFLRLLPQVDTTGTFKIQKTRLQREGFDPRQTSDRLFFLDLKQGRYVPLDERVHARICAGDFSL
The base-10 logarithm of IC50, taken with IC50 in nM, is what appears here.

Example entries and their recorded answers appear below.
Smiles repr | Observed measurement
Cc1nc(NC(=O)CN2CCN(c3ccc(F)cc3)CC2)sc1C | 3.23
O=C(CN1CCN(c2ccc(F)cn2)CC1)Nc1nc2c(s1)CCCC2 | 2.78
O=C(CN1CCN(c2ccc(F)cn2)CC1)Nc1nc2c(o1)CCCC2 | 3.23

Request: Item O=C(CN1CCN(c2ccc(F)cc2)CC1)Nc1nc2c(s1)CCCC2 with Long-chain fatty acid transport protein 1 (Mus musculus) - log10(IC50)?
Result: 3.60

Request: Item O=C(CN1CCN(c2ccccc2)CC1)Nc1nc2c(s1)CCCC2 with Long-chain fatty acid transport protein 1 (Mus musculus) - log10(IC50)?
Result: 3.95

----------
Test system: Long-chain fatty acid transport protein 1 (Homo sapiens)
Sequence (Q6PCB7 whole entry): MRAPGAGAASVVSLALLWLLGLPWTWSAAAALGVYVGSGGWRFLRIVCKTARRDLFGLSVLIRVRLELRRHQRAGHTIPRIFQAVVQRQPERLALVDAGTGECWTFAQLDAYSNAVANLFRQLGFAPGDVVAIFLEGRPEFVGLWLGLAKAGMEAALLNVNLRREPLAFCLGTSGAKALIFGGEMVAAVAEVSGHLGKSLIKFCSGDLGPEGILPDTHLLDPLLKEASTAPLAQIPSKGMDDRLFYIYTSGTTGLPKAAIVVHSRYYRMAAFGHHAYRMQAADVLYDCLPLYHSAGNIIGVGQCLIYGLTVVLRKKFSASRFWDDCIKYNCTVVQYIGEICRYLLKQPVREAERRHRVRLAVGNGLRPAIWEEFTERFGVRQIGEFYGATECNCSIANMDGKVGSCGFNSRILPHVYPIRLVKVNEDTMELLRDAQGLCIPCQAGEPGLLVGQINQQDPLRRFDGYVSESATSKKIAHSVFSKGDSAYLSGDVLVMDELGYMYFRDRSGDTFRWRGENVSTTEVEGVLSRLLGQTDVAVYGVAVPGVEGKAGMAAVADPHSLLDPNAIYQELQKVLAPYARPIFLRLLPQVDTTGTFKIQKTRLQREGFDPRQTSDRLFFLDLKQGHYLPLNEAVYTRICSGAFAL
The reader will find reported pIC50 values listed item by item below.
pIC50 here: minus log base 10 of the concentration, concentration in moles per litre.

Example entries and their recorded answers appear below.
Compound | Test system | Observation type | Observed measurement
O=C(CN1CCN(c2ccc(F)cc2)CC1)Nc1nc2c(s1)CCCC2 | Long-chain fatty acid transport protein 1 (Homo sapiens) | pIC50 | 7.11
Cc1nc(NC(=O)CN2CCN(c3ccc(F)cc3)CC2)sc1C | Long-chain fatty acid transport protein 1 (Homo sapiens) | pIC50 | 6.37
O=C(CN1CCN(c2ccc(F)cn2)CC1)c1cnn2ccccc12 | Long-chain fatty acid transport protein 1 (Homo sapiens) | pIC50 | 6.48
CC1CCc2sc(NC(=O)CN3CCN(c4ccc(F)cc4)CC3)nc2C1 (configuration not stated) | Long-chain fatty acid transport protein 1 (Homo sapiens) | pIC50 | 7.59
O=C(CN1CCN(c2ccc(F)cc2)CC1)Nc1nc2ccccc2s1 | Long-chain fatty acid transport protein 1 (Homo sapiens) | pIC50 | 6.31

Request: Which value of pIC50 has been reported for Cc1ccc(N2CCN(CC(=O)Nc3nc4c(s3)CCCC4)CC2)cc1 in the records?
Result: 6.60

Request: Which value of pIC50 has been reported for O=C(CN1CCN(c2ccc(F)cn2)CC1)Nc1nc2c(o1)CCCC2 in the records?
Result: 7.00

Request: Which value of pIC50 has been reported for O=C(CN1CCN(c2ccc(F)cc2)CC1)Nc1nc2c(s1)CCC2 in the records?
Result: 6.31
